Field: Inhibition of binding to LR04 (B/Bo). Provide a value for each of the substances that follow.
Test system: LRO4
protocol-notes: Competitive phage ELISA, phage binding to LRO4 in presence of MDA-LDL
Parameters: species or system murine
reported-conditions: Table 2B, Ph.D.7C7 library clones; in the presence of 50 μg/mL MDA-LDL
Answers are plain numbers.

In [3]: df
Out[3]:
       substance   val
0  DWAPHFT [Cb2]  0.03

Give one value of Inhibition of binding to LR04 (B/Bo) per listed substance.
1. QNSHMPL [Ca3]
2. NNSNMPL [Cb10]

[0.04, 0.02]
